- tested_system: CK2 (Homo sapiens (Human), UniProt P68400)
- Sequence (P68400 whole entry): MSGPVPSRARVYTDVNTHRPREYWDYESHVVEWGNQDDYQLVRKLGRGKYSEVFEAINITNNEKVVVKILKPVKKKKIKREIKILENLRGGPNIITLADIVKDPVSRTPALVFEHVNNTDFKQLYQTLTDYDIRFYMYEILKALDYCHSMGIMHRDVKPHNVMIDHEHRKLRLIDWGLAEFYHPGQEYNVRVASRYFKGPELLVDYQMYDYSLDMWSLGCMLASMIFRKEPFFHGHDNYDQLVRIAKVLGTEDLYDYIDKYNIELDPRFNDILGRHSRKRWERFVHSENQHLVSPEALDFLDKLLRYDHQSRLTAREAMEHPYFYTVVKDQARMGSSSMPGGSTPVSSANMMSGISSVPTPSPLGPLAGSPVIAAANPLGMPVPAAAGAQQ
- assay_procedure: Radiometric CK2 kinase assay
- Assay type: biochemical
- cond: inhibition of CK2 activity; ATP 10 μM
measure_name: IC50 (nM)
Note: unit nM is implicit; provide only the numeric part.

Check out these entries, answers already filled in.
1. CCC(=O)c1[nH]c2ccc(F)cc2c1-c1cn(CC2CCN(CCNS(=O)(=O)Cc3ccc(C(F)(F)F)cc3)CC2)nn1 [AB1417]    120
2. CCC(C)c1ccc(S(=O)(=O)NCCN2CCC(Cn3cc(-c4c(C(=O)OCC(C)C)[nH]c5ccc(F)cc45)nn3)CC2)cc1 (centres unmarked) [AB931]    100
3. CC(C)COC(=O)c1[nH]c2ccc(F)cc2c1-c1cn(CC2CCN(CCNS(=O)(=O)Cc3cccc(Cl)c3)CC2)nn1 [AB937]    800
4. CC(C)COC(=O)c1[nH]c2ccc(F)cc2c1-c1cn(CC2CCN(CCNS(=O)(=O)c3ccc(Oc4ccccc4)cc3)CC2)nn1 [AB933]    62

API: the following record is the query input.
Request: Data request, read-out IC50, for CC(C)COC(=O)c1[nH]c2ccc(F)cc2c1-c1cn(CC2CCN(CCNS(=O)(=O)c3ccc(-c4ccccc4CN4CCOCC4)cc3)CC2)nn1 [AB1075]
Result: 79
